Molecular target: human TLR9 (Homo sapiens)
Construct: host or cells: HEK-Blue cells (HEK293-derived reporter line)
Sequence (Q9NR96 26-1032): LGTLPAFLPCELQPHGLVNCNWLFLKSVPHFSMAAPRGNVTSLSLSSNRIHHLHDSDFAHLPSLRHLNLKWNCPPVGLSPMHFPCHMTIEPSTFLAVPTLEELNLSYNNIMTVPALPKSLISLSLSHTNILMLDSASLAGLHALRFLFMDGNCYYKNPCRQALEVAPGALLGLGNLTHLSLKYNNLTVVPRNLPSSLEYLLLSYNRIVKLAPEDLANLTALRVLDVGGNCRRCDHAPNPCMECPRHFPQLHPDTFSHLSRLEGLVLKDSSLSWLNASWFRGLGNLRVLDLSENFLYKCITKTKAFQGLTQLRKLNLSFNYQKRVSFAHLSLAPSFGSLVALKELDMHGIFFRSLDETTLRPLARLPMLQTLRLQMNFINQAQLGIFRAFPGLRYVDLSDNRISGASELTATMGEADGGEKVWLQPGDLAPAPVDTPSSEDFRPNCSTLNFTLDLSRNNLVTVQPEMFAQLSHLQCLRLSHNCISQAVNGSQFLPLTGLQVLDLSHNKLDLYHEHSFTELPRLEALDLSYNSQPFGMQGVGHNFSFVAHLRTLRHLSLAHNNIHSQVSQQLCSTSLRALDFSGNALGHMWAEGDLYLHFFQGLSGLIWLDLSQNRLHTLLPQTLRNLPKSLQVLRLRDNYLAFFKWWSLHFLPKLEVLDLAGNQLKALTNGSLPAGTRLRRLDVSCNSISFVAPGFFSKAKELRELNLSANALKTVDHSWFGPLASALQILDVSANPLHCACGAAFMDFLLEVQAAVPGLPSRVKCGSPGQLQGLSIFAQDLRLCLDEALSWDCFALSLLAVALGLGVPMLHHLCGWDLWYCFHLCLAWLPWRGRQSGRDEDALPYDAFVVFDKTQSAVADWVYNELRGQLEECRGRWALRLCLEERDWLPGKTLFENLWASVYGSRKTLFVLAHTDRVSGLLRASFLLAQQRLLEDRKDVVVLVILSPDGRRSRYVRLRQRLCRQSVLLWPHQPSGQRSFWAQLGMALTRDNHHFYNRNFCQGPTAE
Assay: TLR9 inhibition reporter assay (HEK-Blue cells, secreted embryonic alkaline phosphatase reporter)
Format: cell-based
Settings: HEK-Blue cells overexpressing human TLR9, stimulated with ODN2006 5 nM; read-out: TLR 9 IC50

compound | IC50
COc1ccc(-c2nc3ccc(C4CCN(C5CCN(C6CC6)CC5)CC4)cc3n2C)cc1OC [Example 27] | 106 nM
COc1ccc(-c2nc3cc(C4CCN(C5CCN(CC(C)C)CC5)CC4)ccc3n2CC(F)F)cc1OC [Example 38] | 208 nM
Cc1cc(C2CCN(C3CC4CCC(C3)N4C3CCC3)CC2)cc2c1nc(-c1ccc(S(C)(=O)=O)cc1)n2C (single isomer, unassigned) [Example 153] | 12.3 nM
COc1ccc(-c2nc3c(C)cc(C4CCN(C5CC6(C5)CN(C5CCC5)C6)CC4)cc3n2C)cc1OC [Example 49] | 65 nM
Cc1cc(C2CCN(C3CCN(CC(C)C)CC3)CC2)cc2[nH]c(-c3ccc(S(C)(=O)=O)c(F)c3)nc12 [Example 66] | 69 nM
COc1ccc(-c2nc3ccc(C4CCN(C5CCN(C6CC6)CC5)CC4)c(F)c3[nH]2)cc1OC [Example 175] | 527 nM
CCN1CCCN(Cc2ccc(-c3cc(C)c4nc(-c5ccc(S(C)(=O)=O)cc5)n(C)c4c3)cc2F)CC1 [Example 389] | 327 nM
Cc1cc(C2CCN(C3CCN(CC(C)C)CC3)CC2)cc2[nH]c(-c3ccc4c(c3)OCCO4)nc12 [Example 62] | 345 nM
COCCN1CCN(c2ccc(-c3cc(C)c4nc(-c5ccc(S(C)(=O)=O)cc5)n(C)c4c3)cc2)CC1 [Example 173] | 1110 nM
COc1ccc(-c2nc3ccc(C4CCN(C5CCN(CC(C)C)CC5)CC4)cc3n2CC(F)F)cc1OC [Example 32] | 212 nM
CC(C)N1CCCC(N2CCC(c3cc(F)c4nc(-c5ccc(S(C)(=O)=O)cc5)n(C)c4c3)CC2)CC1 (single isomer, unassigned) [Example 295] | 24 nM
Cc1cc(C2CCN(C3CCN(CC(C)C)CC3)CC2)cc2[nH]c(-c3nc4ccccc4s3)nc12 [Example 70, tris(2,2,2-trifluoroacetate)] | 208 nM
CS(=O)(=O)c1ccc(-c2nc3c(F)cc(-c4ccc(CN5CC6(C5)CN(C5CCOCC5)C6)cc4)cc3n2C2CC2)cc1 [Example 412] | 77 nM
Cn1c(-c2ccc(S(C)(=O)=O)cc2)nc2c(F)c(C3CCN(C4CC5CCC(C4)N5CC4COC4)CC3)ccc21 (single isomer, unassigned) [Example 194] | 631 nM
